Assignment: determine reported Plant response rating, Oilseed Rape for the given compounds.
Tested on: oilseed rape (Brassica napus)
Experiment: Test C greenhouse herbicide test, pre- and postemergence
Format: in vivo
Conditions: Postemergence, 125 g ai/ha; scale 0 to 100, 0 is no effect, 100 is complete control

>>> df
                      smiles_representation  reported
0     Cc1nn(C)c(=O)c(-c2ccc(F)c3ccccc23)c1O         5
1  CCC(=O)Oc1c(C)nn(C)c(=O)c1-c1ccc(F)c2ccccc12         0
2      Cc1ccc2ccccc2c1-c1c(O)c(Br)nn(C)c1=O        45

For every item below, please supply its Plant response rating, Oilseed Rape.
1. CC(=O)Oc1c(C)nn(C)c(=O)c1-c1c(C)cc(C)c2ccccc12
2. Cc1nn(C)c(=O)c(-c2cccc3ccccc23)c1O
3. COC(=O)Oc1cnn(C)c(=O)c1-c1c(C)sc2ccccc12
4. Cc1ccc2ccccc2c1-c1c(OC(=O)OC(C)C)c(C)nn(C)c1=O
5. Cc1nn(C)c(=O)c(-c2c(C)sc3ccc(C(F)(F)F)cc23)c1O
6. Cc1cc(C)c2ccccc2c1-c1c(O)c(C)nn(C)c1=O

output:
[60, 0, 0, 20, 85, 100]

###

System: galium (catchweed bedstraw, Galium aparine)
Assay: Test A greenhouse herbicide test, postemergence
Format: in vivo
Settings: 500 g ai/ha, 0 to 100 scale, 0 is no effect, 100 is complete control
Give measured Galium plant response rating for each item. Keep answers brief.
Answers are plain numbers.

>>> print(df.to_string())
                                   compound            measured_parameter  reported
0  COC(=O)Oc1c(C)nn(C)c(=O)c1-c1ccc(Cl)c2ccccc12 [Compound 63]  Galium plant response rating       100
1  CCc1nn(CC)c(=O)c(-c2c(C)oc3ccc(C)cc23)c1O [Compound 64]  Galium plant response rating         0
2  CCc1sc2c(C)cc(C)cc2c1-c1c(O)c(C)nn(C)c1=O [Compound 57]  Galium plant response rating       100
3  Cc1sc2ccccc2c1-c1c(O)c(Cl)nn(C)c1=O [Compound 89]  Galium plant response rating        90
4  Cc1nn(C)c(=O)c(-c2ccc(Br)c3ccccc23)c1O [Compound 75]  Galium plant response rating       100
5  Cc1cc2ccccc2c(-c2c(O)c(C)nn(C)c2=O)c1C [Compound 34]  Galium plant response rating       100
6  COc1nn(C)c(=O)c(-c2c(C)ccc3ccc(C)cc23)c1O [Compound 30]  Galium plant response rating        90
7  Cc1nn(C)c(=O)c(-c2ccc(F)c3ccccc23)c1O [Compound 41]  Galium plant response rating       100
8  Cc1nn(C)c(=O)c(-c2cccc3ccc(OC(F)F)cc23)c1O [Compound 93]  Galium plant response rating        90

Lab note: Cc1nn(C)c(=O)c(-c2cccc3ccc(C4CC4)cc23)c1O [Compound 71] gave Galium plant response rating of 90

###

System: barnyardgrass (Echinochloa crus-galli)
Experiment: Test A greenhouse herbicide test, pre- and postemergence
Format: in vivo
Conditions: Postemergence, 500 g ai/ha; 0 to 100 scale, 0 is no effect, 100 is complete control
MEASURED PARAMETER: Barnyardgrass plant response rating

The cases that follow already have their Barnyardgrass plant response rating on record.
>>> df
                      smiles_representation                   measured_parameter  reported
0  CCOc1ccc2oc(CC)c(-c3c(O)c(C)nn(C)c3=O)c2c1  Barnyardgrass plant response rating        80
1  Cc1nn(C)c(=O)c(-c2cccc3ccc(OC(F)F)cc23)c1O  Barnyardgrass plant response rating        20
2   CCOc1ccc2cccc(-c3c(O)c(C)nn(C)c3=O)c2c1  Barnyardgrass plant response rating         0
3           Cc1sc2ccccc2c1-c1c(O)cnn(C)c1=O  Barnyardgrass plant response rating        50

# ---- query molecule ----
GET /value?item= Cn1ncc(O)c(-c2ccc(F)c3ccccc23)c1=O &field=Barnyardgrass plant response rating returns 50
